As a worked illustration, we turn to IC50 data collected for RORγ receptor (B-RORγ LBD) (Homo sapiens (Human)).

Sample records with IC50:
compound	target_system	value_observed
CN(C(=O)NCc1ccc(CC(=O)O)cc1)c1cc(Cl)c(-c2ccccc2OC(F)(F)F)c(Cl)c1 [Example 1-27]	RORγ receptor (B-RORγ LBD) (Homo sapiens (Human))	0.5 to 5 µM
CC(=O)NS(=O)(=O)c1ccc(CNC(=O)Nc2cc(Cl)c(-c3ccccc3OC(F)(F)F)c(Cl)c2)cc1 [Example 1-7]	RORγ receptor (B-RORγ LBD) (Homo sapiens (Human))	< 0.5 µM
O=C(NCc1ccc(C(=O)O)cc1)Nc1cc(Cl)c(-c2ccccc2OC(F)(F)F)c(Cl)c1 [Example 1-14]	RORγ receptor (B-RORγ LBD) (Homo sapiens (Human))	0.5 to 5 µM
O=C(O)Cc1ccc(CNC(=O)Nc2cc(F)c(-c3ccccc3OC(F)(F)F)c(F)c2)cc1 [Example 1-19]	RORγ receptor (B-RORγ LBD) (Homo sapiens (Human))	0.5 to 5 µM
NS(=O)(=O)c1ccc(CNC(=O)Nc2cc(Cl)c(-c3ccccc3OC(F)(F)F)c(Cl)c2)cc1 [Example 1-6]	RORγ receptor (B-RORγ LBD) (Homo sapiens (Human))	< 0.5 µM

Input line: For Cn1cc(-c2cccc(OC(F)(F)F)c2-c2ccc(NC(=O)NCc3ccc(CC(=O)O)cc3)cc2)cn1 [Example 1-22b] , what is its reported IC50?
Output line: 0.5 to 5 µM

----------
Biological target: RORγ receptor (B-RORγ LBD) (Homo sapiens (Human), UniProt P51449)
Sequence (P51449 269-508): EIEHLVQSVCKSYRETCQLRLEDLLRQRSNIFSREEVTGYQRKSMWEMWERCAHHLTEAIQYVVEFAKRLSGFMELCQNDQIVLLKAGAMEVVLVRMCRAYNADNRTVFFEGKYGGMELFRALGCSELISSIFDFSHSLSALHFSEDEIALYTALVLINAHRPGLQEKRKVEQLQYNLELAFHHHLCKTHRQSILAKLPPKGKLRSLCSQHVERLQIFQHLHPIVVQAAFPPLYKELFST
Below, each entry is listed with its recorded IC50.

compound	IC50
O=C(NCc1ccc(C(F)C(=O)O)cc1)Nc1cc(Cl)c(-c2ccccc2OC(F)(F)F)c(Cl)c1 (centres unmarked) [Example 1-38]	< 0.5 µM
O=C(O)CCc1ccc(CNC(=O)Nc2cc(Cl)c(-c3ccccc3OC(F)(F)F)c(Cl)c2)cc1 [Example 1-36]	0.5 to 5 µM
O=C(O)Cc1ccc(CNC(=O)Nc2ccc(-c3ccccc3)cc2)cc1 [Example 1-23]	5 to 50 µM
O=C(O)Cc1ccc(CNC(=O)Nc2ccc(-c3ccccc3OC(F)(F)F)c(Cl)c2)cc1 [Example 1-18]	0.5 to 5 µM
CCS(=O)(=O)c1ccc(CNC(=O)Nc2ccc(-c3ccccc3)cc2)cc1 [Example 1-2]	5 to 50 µM
CC(C(=O)O)c1ccc(CNC(=O)Nc2cc(Cl)c(-c3ccccc3OC(F)(F)F)c(Cl)c2)cc1 (centres unmarked) [Example 1-24]	0.5 to 5 µM
N#Cc1cc(NC(=O)NCc2ccc(CC(=O)O)cc2)cc(Cl)c1-c1ccccc1OC(F)(F)F [Example 1-16]	< 0.5 µM

In the following, a different compound is considered.
Input line: Request - read-out IC50 | tested on RORγ receptor (B-RORγ LBD) (Homo sapiens (Human), UniProt P51449) | compound Cn1cc(-c2cc(NC(=O)NCc3ccc(CC(=O)O)cc3)ccc2-c2ccccc2OC(F)(F)F)cn1 [Example 1-22a]
Output line: 0.5 to 5 µM
